assay: Tested for the toxicity after ip administration in SLC-BDF1 male mice; type: organism-based; details: SLC-BDF1, mouse, in vivo
Endpoint: LD50 (mg/kg)
Numbers only, in mg/kg.

Sample records with LD50:
CN(CC(N)=O)C(=O)N(CCCl)N=O	392
NC(=O)C1CCCN1C(=O)N(CCCl)N=O (stereo not drawn)	220

input: Please give the documented LD50 of NC(=O)CNC(=O)N(CCCl)N=O
output: 21.2

====

Provide the reported Survivors of each item.
tested on: L1210; test: Tested for Number of 60 days survivors per 5 treated mice against mouse leukemia L1210 cells; assay type: functional
Give bare numbers.

Sample records with Survivors:
NC(=O)C1CCCN1C(=O)N(CCCl)N=O (stereo not drawn)	1
CC(C)CC(NC(=O)N(CCCl)N=O)C(N)=O (stereo not drawn)	5
CC(C)C(NC(=O)N(CCCl)N=O)C(N)=O (stereo not drawn)	5
NC(=O)C(Cc1ccc(O)cc1)NC(=O)N(CCCl)N=O (stereo not drawn)	2
NC(=O)C(CO)NC(=O)N(CCCl)N=O (stereo not drawn)	5

Working through the 3 molecules below one at a time, give Survivors for each.
1. CSCCC(NC(=O)N(CCCl)N=O)C(N)=O (stereo not drawn)
2. CN(CC(N)=O)C(=O)N(CCCl)N=O
3. CC(O)C(NC(=O)N(CCCl)N=O)C(N)=O (stereo not drawn)

output:
1. 0
2. 5
3. 5

Ref: ChEMBL document CHEMBL1122210
